- Tested on: VDR homodimer (NR concentration 270 nM)
- methodNotes: PBM binding z-score (relative to random genomic background probes); higher = stronger binding; sequences stand for … in GC…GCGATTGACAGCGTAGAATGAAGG
Respond with condition met for PBM binding z-score values of -0.2 and above, condition not met for values below.

Study these solved cases before continuing.
CCTACTGGGCCAAGGTCATTCATCAGTCAAAGCA    condition met
ATCTCTAGGTAAGACTCAGTTTAGTGAAGAACGC    condition met
ACTCGGAGGACAAAGGTCAGATCTACGCCAGTGA    condition met
CCGACTGGGGCAGAAGGGTTACCATACCATCCGG    condition not met
TCTAGCAGGCCAGTGGGTCACTCAAGAGGTACGG    condition not met
TCGAGTAGGTTAGTCCGGGCATTCAGCCAACATA    condition met

In plain terms: is recorded PBM binding z-score at least -0.2 for "TGTAGTTGGTCACGGAGGTCACACACGACGGGTA" ?
condition met

Thanks! And "TCGAGTAGGTTAGGGGAATTCAGAATGGCGTCGA" ?
condition met

Thanks! And "CATTCAGGGTCAGCTAGGCCAGAGTAGGGACGGC" ?
condition met

Thanks! And "CCTATTAGTTGGCCATAAGGGCAACCGAAGCTCG" ?
condition met

Thanks! And "ATCCCTAGGTAACAAGTTCAGTGAAAGAGAGGAC" ?
condition met

Thanks! And "GCTAGCAGGCAATTTGGGTCACTCAATGACGGGC" ?
condition not met

====

- Test system: PPARg:RXRa (NR concentration 180 nM, RXRa partner concentration 90 nM)
- methodNotes: PBM binding z-score (relative to random genomic background probes); higher = stronger binding; sequences stand for … in GC…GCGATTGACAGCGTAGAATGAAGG
Respond with True for PBM binding z-score values of 3 and above, False for values below.

TAGCCTAGGTCATGGGCCAGCATACCACGCGAAC    True

In plain terms: is recorded PBM binding z-score at least 3 for "ACTAGTAGTTGAGACGAGGGCAACCGATAGGTTG" ?
False

Thanks! And "CTACCAAGGTGAACAAGGTCGTTGAATACTATTC" ?
False

Thanks! And "TGAACGAGGTTATAAGATCAGGGAACGTTGCAAA" ?
False

====

- Test system: PPARg DBDmut:RXRa IVT, anti-PPARg (DBD mutation: PPARg1 K132A/R137A, NR concentration 270 nM, RXRa partner concentration 90 nM)
- methodNotes: PBM binding z-score (relative to random genomic background probes); higher = stronger binding; sequences stand for … in GC…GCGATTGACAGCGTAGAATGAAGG
measure: PBM binding z-score
Respond with the number and no other words.

Requested field: PBM binding z-score. Item: "AATACAGGGTCATCGTAGGCGAGAGTACGCACAG"
3.29

====

The entries below come with measured PBM binding z-score values attached.
- Tested on: RARa homodimer (NR concentration 270 nM)
- methodNotes: PBM binding z-score (relative to random genomic background probes); higher = stronger binding; sequences stand for … in GC…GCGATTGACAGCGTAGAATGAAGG
Respond with the number and no other words.

Worked set:
CCTATTAGTTGACCATAAGGGCAACCGAAGCTCG    1.39
CCGACTGGGGCATAAGGTTACCGTAAGCCAGCCC    -0.61
ATCTCTAGGTAAAGATAGTTCAGTGATTGCAAAT    1.29
TCGAGTAGGTTAAGGGCATTCAGAATGGCGTCGA    -0.417
GGAACGCGGGCAAAGTTGATAGCATCTGTCGACG    -0.689

Requested field: PBM binding z-score. Item: "ACTATTAGTTGACTTACGGCAACCGATACGACGC"
0.942

Thanks! And "TTACCAAGGTGAAAGGTAGTTGATGCACGCCTTG" ?
0.138

Thanks! And "CTCGAAAGGACGGTTGAGGTGAGTATACGGATAA" ?
-0.448

Thanks! And "ACACCAAGGTGATCGTGAGGTCGTTGATACTAAC" ?
0.0851

Thanks! And "TCGAGTAGTTTAGTCGGGGCATTCAGCCAACATA" ?
-0.408

Thanks! And "TCTAGCAGGCCAGAGGGCCACTCAAGAGGTACGG" ?
-0.342
